% of Cysteine depletion, Rep 2: recorded values
tested on: cysteine peptide (Ac-RFAACAA-COOH); test: Direct Peptide Reactivity Assay, cysteine peptide; conditions: 20 min; 1:10
// return numeric value only (unit: %, not printed)

Solved cases (3 shown):
CCCCCCOc1cc(N)ccc1N; 31.8
CCCCC(CC)COc1cc(N)ccc1N (stereo not drawn); 32
NC1=CC(=Nc2ccc(N)cc2)C(N)=CC1=Nc1ccc(N)cc1 [Bandrowski Base, reference compound]; 44.5

# input compound: `Nc1ccc(Nc2ccc(Nc3ccc(N)cc3)cc2)cc1` ; wanted: its % of Cysteine depletion, Rep 2
53.6

Look up % of Cysteine depletion, Rep 2 for this compound: O=C1C=CC(=O)C=C1 [p-Benzoquinone, p-benzoquinone, reference compound]
73.7

Give the measured % of Cysteine depletion, Rep 2 of Nc1ccc(N)cc1 [PPD, para-phenylenediamine, reference compound] .
14

Quick one: % of Cysteine depletion, Rep 2 of `Nc1ccc(Nc2ccc(N)cc2)cc1` ?
40.5

Which % of Cysteine depletion, Rep 2 value belongs to OC[C@H]1O[C@@H](O[C@H]2[C@H](O)[C@@H](O)C(O)O[C@@H]2CO)[C@H](O)[C@@H](O)[C@H]1O (stereo partly drawn) [Lactose, reference compound] ?
0

Which measured % of Cysteine depletion, Rep 2 value corresponds to `CCCCCCOc1cc(Nc2ccc(N)cc2)ccc1N` ?
52.9
